SYSTEM: NEK2 (human) (UniProt P51955)
Sequence (P51955 whole entry, looked up): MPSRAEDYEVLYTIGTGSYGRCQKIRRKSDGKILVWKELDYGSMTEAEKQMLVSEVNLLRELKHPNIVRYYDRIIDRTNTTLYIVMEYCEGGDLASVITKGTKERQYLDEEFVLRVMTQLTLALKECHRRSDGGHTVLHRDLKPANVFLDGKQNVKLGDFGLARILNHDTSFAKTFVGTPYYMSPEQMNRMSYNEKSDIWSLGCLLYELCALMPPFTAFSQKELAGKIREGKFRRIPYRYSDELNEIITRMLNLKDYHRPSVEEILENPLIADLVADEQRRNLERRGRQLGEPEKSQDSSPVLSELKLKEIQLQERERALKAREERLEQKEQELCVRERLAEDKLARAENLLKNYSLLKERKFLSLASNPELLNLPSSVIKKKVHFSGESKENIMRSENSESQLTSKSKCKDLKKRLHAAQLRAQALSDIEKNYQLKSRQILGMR
PROTOCOL_TEXT: radiometric filter-binding kinase assay
EXPERIMENTAL_SETUP: compound 10.0 µM
QUANTITY_MEASURED: residual activity (%)
Quick note: give the figure in %, leave out the unit.

Task item: Form entry - test system: NEK2 (human) (UniProt P51955); read-out: residual activity; compound: CN1C(=O)[C@@H](Cc2c[nH]c3ccccc23)NC1=S
Reply: 86

Task item: Request - read-out residual activity | tested on NEK2 (human) (UniProt P51955) | compound NC(=O)Nc1ccc2c(c1)/C(=C/c1cc(-c3cccnc3)c[nH]1)C(=O)N2
Reply: 28

Query compound follows.
Task item: Provide the documented residual activity with NEK2 (human) (UniProt P51955) as the system for Cc1ccc2c(c1)C(=O)[C@@]1(O)CCN(c3ccccc3)C1=N2
Reply: 77

* * *

Entries and their residual activity values follow.
SYSTEM: MAP4K3 (human) (UniProt Q8IVH8)
Sequence (Q8IVH8 whole entry, looked up): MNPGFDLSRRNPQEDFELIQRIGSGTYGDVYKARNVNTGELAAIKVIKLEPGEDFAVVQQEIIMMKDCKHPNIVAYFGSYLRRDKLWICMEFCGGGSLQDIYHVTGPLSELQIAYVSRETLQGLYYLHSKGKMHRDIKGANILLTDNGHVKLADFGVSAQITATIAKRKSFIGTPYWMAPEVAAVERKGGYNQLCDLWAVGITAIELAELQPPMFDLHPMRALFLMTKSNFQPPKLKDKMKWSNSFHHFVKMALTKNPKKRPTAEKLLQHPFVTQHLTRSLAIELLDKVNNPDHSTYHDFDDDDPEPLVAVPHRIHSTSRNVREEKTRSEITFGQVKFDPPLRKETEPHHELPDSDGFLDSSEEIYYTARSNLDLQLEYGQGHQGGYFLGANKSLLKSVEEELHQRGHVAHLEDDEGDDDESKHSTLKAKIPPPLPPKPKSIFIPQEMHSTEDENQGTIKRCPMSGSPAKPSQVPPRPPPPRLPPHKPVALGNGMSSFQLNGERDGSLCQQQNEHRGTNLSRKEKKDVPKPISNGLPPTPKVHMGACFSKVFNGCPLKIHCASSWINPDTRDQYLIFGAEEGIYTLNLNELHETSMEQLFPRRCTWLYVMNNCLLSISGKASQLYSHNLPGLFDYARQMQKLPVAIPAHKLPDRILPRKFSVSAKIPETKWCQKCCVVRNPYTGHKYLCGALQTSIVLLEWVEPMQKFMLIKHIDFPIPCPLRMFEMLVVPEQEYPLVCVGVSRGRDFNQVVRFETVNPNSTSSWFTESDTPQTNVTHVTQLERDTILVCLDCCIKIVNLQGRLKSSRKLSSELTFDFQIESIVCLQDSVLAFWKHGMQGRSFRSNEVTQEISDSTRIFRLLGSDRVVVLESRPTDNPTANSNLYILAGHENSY
PROTOCOL_TEXT: radiometric filter-binding kinase assay
EXPERIMENTAL_SETUP: compound 10.0 µM
Use % as the unit, but write only the number.

The examples below pair each entry with its known result.
Task item: What measured residual activity is associated with Nc1cccc2c1CN(C1CCC(=O)NC1=O)C2=O (stereo not drawn) on MAP4K3 (human) (UniProt Q8IVH8)?
Reply: 110

Task item: Enter reported residual activity observed with MAP4K3 (human) (UniProt Q8IVH8) for NCC(=O)Nc1ccc(-n2nc(C(F)(F)F)cc2-c2ccc3c(ccc4ccccc43)c2)cc1
Reply: 73

Task item: What residual activity appears in the records for this compound with MAP4K3 (human) (UniProt Q8IVH8)? CCNc1nc(Nc2cc(F)c(C(=O)N3CCOCC3)cc2OC)ncc1C(F)(F)F
Reply: 21

Task item: Test system MAP4K3 (human) (UniProt Q8IVH8); read-out residual activity; what value for Cc1ccc(-c2ccc3c(ccc4sc5c(c43)NC[C@@H](C)NC5=O)n2)cn1 ?
Reply: 41

Task item: I'm curious: which residual activity was measured for CCn1c(-c2nonc2N)nc2cncc(CNC3CCNCC3)c21 tested on MAP4K3 (human) (UniProt Q8IVH8)?
Reply: 66

***
Task item: Which measured residual activity belongs to COc1cc(C(=O)N2CCOCC2)c(F)cc1Nc1ncc(C(F)(F)F)c(NC2CC2)n1 , tested on MAP4K3 (human) (UniProt Q8IVH8)?
Reply: 36

Task item: Give MAP4K3 (human) (UniProt Q8IVH8) residual activity for COC(=O)/C=C/C(=O)OC
Reply: 92

Task item: Give the reported residual activity for CC1=C(CO)C(=O)O[C@@H]([C@@H](C)[C@H]2CC[C@H]3[C@@H]4C[C@H]5O[C@]56[C@@H](O)C=CC(=O)[C@]6(C)C4CC[C@]23C)C1 (stereo partly drawn) (system: MAP4K3 (human) (UniProt Q8IVH8)).
Reply: 84

* * *

SYSTEM: MST4 (human)
PROTOCOL_TEXT: radiometric filter-binding kinase assay
EXPERIMENTAL_SETUP: compound 0.1 µM
Measured residual activity of individual entries
Answer with a number only, understood to be in %.

Examples from the recorded data:
Task item: For CCn1c(-c2nonc2N)nc2cncc(CNC3CCNCC3)c21 , what is its reported residual activity?
Reply: 91

Task item: Please give the measured residual activity for this molecule: COc1ccc(-n2ncc3cnc(Nc4cc(OC)c(OC)c(OCCCN5CCN(C)CC5)c4)nc32)cc1
Reply: 90

Task item: residual activity lookup needed for CN1CCN(CCOc2cc(OC3CCOCC3)c3c(Nc4c(Cl)ccc5c4OCO5)ncnc3c2)CC1 , thanks.
Reply: 104

Continuing:
Task item: Which residual activity is reported for this molecule? O=C(Nc1ccccc1-c1cn2c(CN3CCNCC3)csc2n1)c1cnc2ccccc2n1
Reply: 73

Task item: Any idea what its residual activity is? The molecule is CCc1cncnc1N1CCN(Cc2nc3cc(C(F)(F)F)ccc3[nH]2)CC1
Reply: 87

Task item: For the molecule shown here, O=C(N[C@@H](COc1ccc2[nH]c(=O)[nH]c2c1)c1ccccc1)c1cccn(Cc2ccc(F)c(F)c2)c1=O , give the reported residual activity.
Reply: 101
